# Protocol: Approximate solubility estimates (solvent incremental addition, visual observation)
# Format: physicochemical
# Experimental parameters: AcOH:H2O (85:15), organic solvent or mixture, thermodynamic from solid, AcOH:H2O (85:15), aw = 0.51, ambient; read-out: Solubility
# Method: Approximate solubility estimates of Compound 1 Lot I were ascertained using the solvent incremental addition method and visual observation (Table 2.1). […] Approximate solubilities were calculated based on the total solvent used to achieve a solution, as judged by visual observation. Actual solubilities may be greater because of the volume of solvent portions utilized or a slow rate of dissolution. […] If dissolution occurred at the first aliquot, the value was reported as “>”
Value type: solubility

>>> result("CN(C)C(=O)Nc1cc(Oc2cnc3nc(Nc4cc(C(F)(F)F)cn(C)c4=O)n(C)c3c2C#N)ccn1")
"> 51 mg/mL"
